Taken from patent US20240246954A1.

# Target of assay: Avi-KRAS G12D/Q25A (1-169) GppNHp/3×FLAG-PI3KCA (157-299) (Homo sapiens, UniProt P01116, G12D/Q25A)
# Construct: Avi-KRAS G12D/Q25A (1-169) GppNHp
# Sequence (P01116 1-169 isoform P01116-2 G12D/Q25A limits assumed): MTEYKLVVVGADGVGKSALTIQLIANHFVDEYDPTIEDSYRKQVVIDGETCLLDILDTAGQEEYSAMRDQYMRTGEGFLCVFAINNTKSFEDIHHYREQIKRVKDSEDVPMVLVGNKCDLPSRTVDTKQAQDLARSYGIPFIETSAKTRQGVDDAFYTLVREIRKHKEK
# Test name: HTRF PI3KCA-KRAS G12D/Q25A-GppNHp disruption assay
# Condition info: 1 h incubation
IC50 reference

Guide cases for IC50, answers given:
Recorded IC50 for CN(c1nc(OC[C@@H]2CC(F)(F)CN2C)nc2c(F)c(-c3ccc(F)c4sc(N)nc34)c(C(F)(F)F)cc12)C1CNC1 , please?
10 to 30 µM

Param item = CN(c1nc(OC[C@@]23CCCN2C[C@H](F)C3)nc2c(F)c(-c3ccc(F)c4sc(N)nc34)c(C(F)(F)F)cc12)[C@H]1CNCC12CC2 ; retrieve measured IC50.
10 to 30 µM

What measured IC50 goes with Nc1nc2c(-c3c(C(F)(F)F)cc4c(N5CC[C@@H]6CNC[C@@H]65)nc(OC[C@@]56CCCN5C[C@H](F)C6)nc4c3F)ccc(F)c2s1 ?
0.1 to 1 µM

# input molecule: CN1CCC[C@H]1COc1nc(N(CCC#N)C2CN(C(=O)CN)C2)c2cc(Cl)c(-c3ccc(F)c4sc(N)nc34)c(F)c2n1 ; wanted: its IC50
10 to 30 µM

What value of measured IC50 is listed for C[C@@H]1CN(c2nc(OC[C@@]34CCCN3C[C@@H](F)C4)nc3c(F)c(-c4ccc(F)c5sc(N)nc45)c(C(F)(F)F)cc23)[C@@H](C)CN1 ?
10 to 30 µM

Others:
What value of IC50 has been reported for the following molecule? Nc1c(F)c(F)c(F)c(-c2c(C(F)(F)F)cc3c(N4CC5CCC(C4)N5)nc(OCC45CCCN4CCC5)nc3c2F)c1Cl
10 to 30 µM

Fill in the blank: the reported IC50 of Nc1nc2c(-c3c(C(F)(F)F)cc4c(N5CCNCC5)nc(OCC56CCCN5CCC6)nc4c3F)ccc(F)c2o1 is ____.
1 to 10 µM

Would you mind telling me what IC50 value was observed for CN1CCC[C@H]1COc1nc(N2CCNCC2)c2cc(-c3cnn(C)c3)c(-c3ccc(F)c4sc(N)nc34)c(F)c2n1 ?
10 to 30 µM

What value of IC50 has been recorded for this entry: Nc1nc2c(-c3c(C(F)(F)F)cc4c(N5C[C@H]6CC[C@@H](C5)N6)nc(OC[C@@]56CCCN5C[C@H](F)C6)nc4c3Cl)ccc(F)c2s1
0.1 to 1 µM

// IC50 lookup, key: Nc1nc2c(-c3c(C(F)(F)F)cc4c(N5CC6CC(C5)N6)nc(OCC56CCCN5CCC6)nc4c3F)ccc(F)c2s1
0.1 to 1 µM

Query (molecule): COc1cc2c(N3C[C@@H](C)NC[C@@H]3C)nc(OC[C@@]34CCCN3C[C@H](F)C4)nc2c(F)c1-c1ccc(F)c2sc(N)nc12 ; field requested: IC50
10 to 30 µM

====

Below, each entry is listed alongside its reported pIC50.
# Target of assay: Avi-KRAS G12D (1-169) GppNHp/RAF1 RBD-3×FLAG (52-151) (Homo sapiens, UniProt P01116, G12D)
# Construct: Avi-KRAS G12D (1-169) GppNHp
# Sequence (P01116 1-169 isoform P01116-2 G12D limits assumed): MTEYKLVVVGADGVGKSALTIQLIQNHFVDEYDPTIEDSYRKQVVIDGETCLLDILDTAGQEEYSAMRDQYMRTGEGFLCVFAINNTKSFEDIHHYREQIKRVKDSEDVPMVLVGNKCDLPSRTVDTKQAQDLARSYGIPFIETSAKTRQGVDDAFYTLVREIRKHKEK
# Test name: HTRF Raf1-KRAS G12D-GppNHp disruption assay
# Condition info: 1 h incubation
# Experimental: The HTRF assay employed the following protocol: Compounds were dispensed in assay plate (384-well, Grenier Bione #784075) using Echo (model 555) with dose response settings: 200 nL final volume, titration from 100 μM as a 10-point dilution series. […] Plates were analyzed on an Envision plate reader using the following setting: Excitation 320 nm, Bandwidth […]; Emission 615 nm, Bandwidth […], Gain 100%, Flashes 100, Lag 60 μs. […] Data was plotted and analyzed using Prism 8.
pIC50: −log10 of the molar value.

Check out these entries, answers already filled in.
So what does the record say about pIC50 for Nc1nc2c(-c3c(C(F)(F)F)cc4c(N5CC[C@H]6CNC[C@H]65)nc(OC[C@@]56CCCN5C[C@H](F)C6)nc4c3F)ccc(F)c2s1 [Compound 352] ?
5.00 to 6.00

Quick one: pIC50 for Nc1nc2c(-c3c(OC(F)(F)F)cc4c(N5CC6CCC(C5)N6)nc(OC[C@@]56CCCN5C[C@H](F)C6)nc4c3F)ccc(F)c2o1 [Compound 233] ?
5.00 to 6.00

What pIC50 value was documented for this compound, Nc1nc2c(-c3c(C(F)(F)F)cc4c(N[C@@H]5CCNC5)nc(OC[C@@]56CCCN5C[C@H](F)C6)nc4c3F)ccc(F)c2s1 (atropisomer, axis not shown) [Compound 248] ?
≥ 7.00

Need pIC50 of Nc1nc2c(-c3c(C(F)(F)F)cc4c(N5CCC[C@H]6NCC[C@H]65)nc(OCC56CCCN5CCC6)nc4c3F)ccc(F)c2s1 [Compound 332] , thanks.
6.00 to 7.00

Given the compound C[C@@H]1CNC[C@@H]1N(C)c1nc(OC[C@@]23CCCN2C[C@H](F)C3)nc2c(F)c(-c3ccc(F)c4sc(N)nc34)c(C(F)(F)F)cc12 [Compound 292] , what is its reported pIC50?
5.00 to 6.00

Further cases:
Look up pIC50 for this compound: CO[C@@H]1C[C@@H](COc2nc(N3CCNCC3)c3cc(Cl)c(-c4ccc(F)c5sc(N)nc45)c(F)c3n2)N(C)C1 [Compound 69]
4.52 to 5.00

====

# Target of assay: Avi-KRAS G12D (1-169) GppNHp/RAF1 RBD-3×FLAG (52-151) (Homo sapiens, UniProt P01116, G12D)
# Construct: Avi-KRAS G12D (1-169) GppNHp
# Test name: HTRF Raf1-KRAS G12D-GppNHp disruption assay
# Condition info: 1 h incubation
Reported IC50 is given for each of the following compounds.

Take a look at these entries with their results.
Fill in the blank: the reported IC50 of CC1(Nc2nc(OCC34CCCN3CCC4)nc3c(F)c(-c4ccc(F)c5sc(N)nc45)c(Cl)cc23)CNC1 is ____.
1 to 10 µM

Look up IC50: CN1C[C@H](F)C[C@H]1COc1nc(N2CC3CCC(C2)N3)c2cc(C(F)(F)F)c(-c3ccc(F)c4sc(N)nc34)c(F)c2n1
1 to 10 µM

Look up IC50: CN1CCC[C@H]1COc1nc(N2CCN(C(=O)CN)[C@@H](CC#N)C2)c2cc(Cl)c(-c3ccc(F)c4sc(N)nc34)c(O)c2n1
10 to 30 µM

Recorded IC50 of N#Cc1c(N)cccc1-c1c(C(F)(F)F)cc2c(N3CC4CCC(C3)N4)nc(OCC34CCCN3CCC4)nc2c1F , please.
10 to 30 µM

IC50 for N#Cc1c(N)sc2c(F)ccc(-c3c(C(F)(F)F)cc4c(N5C[C@H]6CC[C@@H](C5)N6)nc(OC[C@@]56CCCN5C[C@H](F)C6)nc4c3F)c12 ?
≤ 0.1 µM

Kindly review the next compound as well.
Recorded IC50 for N#CCc1cc2c(N3CCN(C(=O)CN)CC3)ncnc2c(F)c1-c1ccc(F)c2sc(N)nc12 , please?
10 to 30 µM

====

# Target of assay: Avi-KRAS G12D/Q25A (1-169) GppNHp/3×FLAG-PI3KCA (157-299) (Homo sapiens, UniProt P01116, G12D/Q25A)
# Construct: Avi-KRAS G12D/Q25A (1-169) GppNHp
# Test name: HTRF PI3KCA-KRAS G12D/Q25A-GppNHp disruption assay
# Condition info: 1 h incubation
Measured attribute: IC50

# query: IC50 of entry C[C@H]1CNC[C@@H]1N(C)c1nc(OC[C@@]23CCCN2C[C@H](F)C3)nc2c(F)c(-c3ccc(F)c4sc(N)nc34)c(C(F)(F)F)cc12 [Compound 309]
1 to 10 µM

Look at this compound and give its reported IC50. CN1CCC[C@H]1COc1nc(NCCN)c2cc(Cl)c(-c3cccc4nc(N)cn34)c(F)c2n1 [Compound 93]
10 to 30 µM

So what does the record say about IC50 for C[C@H]1CNCCN1c1nc(OC[C@@]23CCCN2C[C@@H](F)C3)nc2c(F)c(-c3ccc(F)c4sc(N)nc34)c(C(F)(F)F)cc12 [Compound 222] ?
10 to 30 µM

Give its IC50 value. Item: CN1CCC[C@H]1COc1nc(N[C@H]2C[C@H](N)C2)c2cc(Cl)c(-c3ccc(F)c4sc(N)nc34)c(F)c2n1 (atropisomer, axis not shown) [Compound 83]
1 to 10 µM

Please report the recorded IC50 for Cc1ccc2[nH]ncc2c1-c1c(Cl)cc2c(NCCN)nc(OC[C@@H]3CCCN3C)nc2c1F [Compound 62] .
10 to 30 µM

Next:
GET /values?readout=IC50&item= CN1CCC[C@H]1COc1nc(N2CCNCC2)c2cc(-c3ccccc3)c(-c3ccc(F)c4sc(N)nc34)c(F)c2n1 [Compound 145]
10 to 30 µM
